assayDetails: Solubility of the starting solid by the gravimetric method
Format: physicochemical
recordedConditions: organic solvent or mixture, thermodynamic from solid; MeOH; RT; read-out: Solubility at RT
reportedMetric: solubility (µg/mL)
Write the number in µg/mL without appending the unit.

Q) I am curious: what solubility value has been reported for CC(C)CC(=O)Nc1cncc(-c2ccc3[nH]nc(-c4nc5c(-c6cccc(F)c6)cncc5[nH]4)c3c2)c1 ?
A) 1000

----------
assayDetails: Dog pharmacokinetics after IA injection (plasma, cartilage, bone, synovial fluid)
Format: in vivo, beagle dogs
recordedConditions: dog; 30 μg/knee; Day 45
reportedMetric: total amount recovered from cartilage and bone tissues from the tibia

Q) Any idea what its total amount recovered from cartilage and bone tissues from the tibia is? The compound is CC(C)CC(=O)Nc1cncc(-c2ccc3[nH]nc(-c4nc5c(-c6cccc(F)c6)cncc5[nH]4)c3c2)c1
A) 5060 ng
